test system: SK-MEL-5 melanoma; test: NCI tumour cell line growth inhibition, 48 h; in the data active means GI50 below about 0.43 µM; inactive means the rest
Pick from 1.0 for active, 0.0 for inactive when you respond.

Use these answered entries as a reference point.
COMPOUND	GROUP
COC(=O)[C@]12CC[C@@H](C)[C@H](C)[C@@H]1C1=CC[C@@H]3[C@@]4(C)C[C@@H](OC(C)=O)[C@H](O)[C@@](C)(CO)[C@@H]4[C@H](O)C[C@@]3(C)[C@]1(C)CC2	0.0
C#CC#CC#CC#CC#CC#CC#CC#CC[C@@H]1OC[C@H](COC(=O)O[C@@H](C(=O)O[C@H]2C[C@@]3(O)[C@@H](OC(=O)c4ccccc4)[C@@H]4[C@]5(OC(C)=O)CO[C@@H]5C[C@H](O)[C@@]4(C)C(=O)[C@H](OC(C)=O)C(=C2C)C3(C)C)[C@@H](NC(=O)c2ccccc2)c2ccccc2)O1	0.0
COc1ccc(C2NC(=O)c3cc4c(cc3N2)OCO4)cc1 (configuration not stated)	1.0

Q) Hi, sorry to bother you, what did the test record for COc1cc2nccc(Oc3ccc(NC(=O)C4(C(=O)Nc5ccc(F)cc5)CC4)cc3)c2cc1OC(=O)c1ccc(N)cc1 ?
A) 0.0

Q) In this assay, the call recorded for CC(=O)/C(=C\c1c(-c2ccccc2)[nH]c2ccccc12)S(C)(=O)=O was what?
A) 0.0

Q) What did this assay record as the result for O=C1NC(=NCc2c(Cl)cccc2Cl)S/C1=C\c1ccc2ncccc2c1 ?
A) 0.0

Q) Per the assay record, what outcome was assigned to COc1ccc2c(c1OC)C(=O)OC2C1c2c(c(N)c3c(c2OC)OCO3)CCN1C (configuration not stated) ?
A) 0.0
